target: T1, recombinant human GPC3 (human, UniProt P51654 25-559, limits assumed); assay: SPR (Biacore), antibody as ligand, recombinant human GPC3 as analyte, 1:1 Langmuir model
T1 construct: also called hGPC3

{"binder": "LAb19307 (antibody, V domains shown, Mouse monoclonal antibody purified from hybridoma supernatant) VH: EVQLVESGGDLVKPGGSLKLSCAASGFAFGTYDMSWVRQTPEKRLEWVAYISSGGNSPYYPQTVKGRFTISRDNAKNTLYLQMSSLKSEDTAMYYCARQNIARRGAMDFWGQGASVTVSS VL: DVVLTQSPLSQPVSLGDQASISCTSSQSLLHSNGNTYLHWYLQKPGQSPKLLIYKVSNRFSGVPDRFSGSGSGTDFTLKISRVEAEDLGVYFCSQSTHVPPTFGGGTKLEIK", "unit_name": "M⁻¹ s⁻¹", "kon": 30200}
{"binder": "LAb19304 (antibody, V domains shown, Mouse monoclonal antibody purified from hybridoma supernatant) VH: QVQLQQSGAELVRPGASVTLSCKASGYTFTAYEMHWVKQTPVHGLEWIGGIDPETGNTAYSQKFKGKATLTADKSSSTAYMEVRSLTSEDSAVYYCSRYYSFAYWGQGTLVTVSA VL: DVLMTQTPLSLPVSLGDQASISCRSSQTIVHSNGNTYLEWYLQKPGQSPKLLIYKVSNRFSGVPDRFSGSGSGTDFTLKISRVEAEDLGVYYCFQVSHVPYTFGGGTKLEIK", "unit_name": "M⁻¹ s⁻¹", "kon": 27000}
{"binder": "LAb19301 (antibody, V domains shown, Mouse monoclonal antibody purified from hybridoma supernatant) VH: DVQLQESGPDLVKPSQSLSLTCTVTGYSITSGFSWHWIRQFPGHKLEWMGFMQYSGNTNYNPSLKSRISFTRDTSKNQFFLQLKSVTPEDTATYYCARREEGAWFAYWGQGTLVTVSA VL: DVVMTQTPLSLPVSLGDQASISCGSSQSLVHSNGNTYLHWYLQKPGQSPKLLIYKVSNRFSGVPDRFSGSGSGTDFTLKISRVEAEDLGVYFCSQSTHFPFTFGSGTKLEIK", "unit_name": "M⁻¹ s⁻¹", "kon": 16900}
